ASSAY_INFO: physchem
Type: physicochemical
STUDY_CONDITIONS: pH 2, Solubility
Where no end group is shown, it is not given here.
MEASURE_NAME: solubility at 3 h (µg/mL)
The reply should be a number in µg/mL, with the unit left off.

INPUT: Recall and state the measured solubility at 3 h for FTTFTVT [CSP7 acetate] .
OUTPUT: 701

###

ASSAY_INFO: physchem
Format: physicochemical
STUDY_CONDITIONS: pH 10, Solubility
Where no end group is shown, it is not given here.
MEASURE_NAME: solubility at 3 h (µg/mL)
Provide the reading as a plain figure in µg/mL.

INPUT: Give solubility at 3 h for the following substance: FTTFTVT [CSP7 acetate]
OUTPUT: 2880
